Test: Pharmacokinetics in control rats after gavage of JYPs
Type: in vivo, Sprague Dawley (SD) rats
Conditions: male, Sprague-Dawley, rat, plasma, 1.08 g/kg/day, oral JYPs low dose 1.080 g/kg/d (1st of 3 values)
Source text: According to the established method for the analysis of serum biological samples, the pharmacokinetics of various components of rat serum were investigated after the administration of different dosages of JYPs to control rats. For the control experiment, healthy male Sprague Dawley (SD) rats of SPF grade ([…] ± 20 g) were purchased from Sipeifu (Beijing) Biotechnology Co., Ltd. (Beijing, China), Animal Quality Certificate No. 110324220102348616. […]
Below: a set of entries, each annotated with reported AUC(0-t).
Your answer is read as ng·h/mL, so omit the unit and give the number.

MOLECULE | AUC(0-t) / ng·h/mL
C[C@H]1O[C@@H](O[C@H]2CC[C@@]3(C)[C@@H](CC[C@]4(C)[C@@H]3C=C[C@]35OC[C@@]6(CCC(C)(C)C[C@H]63)[C@H](O)C[C@]54C)[C@]2(C)CO)[C@H](O)[C@@H](O[C@@H]2O[C@H](CO)[C@@H](O)[C@H](O)[C@H]2O)[C@H]1O | 79.6

Which AUC(0-t) value belongs to `C[C@H]1O[C@@H](O[C@H]2CC[C@@]3(C)[C@@H](CC[C@]4(C)[C@@H]3C=C[C@]35OC[C@@]6(CCC(C)(C)C[C@H]63)[C@@H](O)C[C@]54C)[C@]2(C)CO)[C@H](O)[C@@H](O[C@@H]2O[C@H](CO)[C@@H](O)[C@H](O)[C@H]2O)[C@H]1O` ?
120

I have this molecule here, CCC/C=C1\OC(=O)C2=C1CCC=C2 [Z-Ligustilide] , and I need its recorded AUC(0-t).
28.7

So what's the measured AUC(0-t) for this one? CCCC=C1OC(=O)C2=C1CCC1C3C=C4C(=O)OC(=CCCC)C4(CC3)C21 (stereo not shown) [Levistilide A]
12.9

---

Quick reference: half-life of the listed items.
experiment: Pharmacokinetics in ADHD model rats after gavage of JYPs; type: in vivo, SHR rats (ADHD model); conditions: male, SHR, rat, plasma, 1.08 g/kg/day; ADHD model rats, oral JYPs low dose 1.080 g/kg/d (1st of 3 values)
Hi! Could you send only the number? It should be in h, unit omitted.

Some entries whose results are on file:
MOLECULE | half-life (h)
C[C@H]1O[C@@H](O[C@H]2CC[C@@]3(C)[C@@H](CC[C@]4(C)[C@@H]3C=C[C@]35OC[C@@]6(CCC(C)(C)C[C@H]63)[C@H](O)C[C@]54C)[C@]2(C)CO)[C@H](O)[C@@H](O[C@@H]2O[C@H](CO)[C@@H](O)[C@H](O)[C@H]2O)[C@H]1O | 15
C[C@H]1O[C@@H](O[C@H]2CC[C@@]3(C)[C@@H](CC[C@]4(C)[C@@H]3C=C[C@]35OC[C@@]6(CCC(C)(C)C[C@H]63)[C@@H](O)C[C@]54C)[C@]2(C)CO)[C@H](O)[C@@H](O[C@@H]2O[C@H](CO)[C@@H](O)[C@H](O)[C@H]2O)[C@H]1O | 13.3

For the next question, use this molecule.
Find the recorded half-life belonging to CCC/C=C1\OC(=O)C2=C1CCC=C2 [Z-Ligustilide] and report it.
12.8
